- PROTOCOL NOTES: Cytotoxicity in Vero cells
- Assay type: cell-based
- TEST CONTEXT: African green monkey, cytotoxic concentration
READOUT KIND: CC50
The reply should consist of the numeric value with the unit placed after it.

Query: Give its CC50 value. Item: Nc1nc2c(ncn2COCCO)c(=O)[nH]1
Response: 806 µg/mL
